Tested on: recombinant soluble homotrimeric HA of A/duck/Yangzhou/02/05 (H8N4) (Influenza A virus A/duck/Yangzhou/02/2005(H8N4))
Protocol details: trimeric HA microarray, transfection supernatant set 4
Protocol conditions: remark: other sources report otherwise
Parameter Trimeric HA Binding: RLU: see the listing below.
Give just the number in RLU; leave the unit off.

TCN-536 (5095_N01) (antibody, V domains shown) VH: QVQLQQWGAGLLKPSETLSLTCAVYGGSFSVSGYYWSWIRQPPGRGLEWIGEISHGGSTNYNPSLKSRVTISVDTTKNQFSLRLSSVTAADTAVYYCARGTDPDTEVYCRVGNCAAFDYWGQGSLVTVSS VL: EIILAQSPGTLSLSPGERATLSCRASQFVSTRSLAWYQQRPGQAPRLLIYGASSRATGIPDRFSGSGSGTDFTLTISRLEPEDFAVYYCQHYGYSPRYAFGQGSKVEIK | 48

Query block: What value of measured Trimeric HA Binding: RLU is listed for TCN-504 (3251_K17) (antibody, V domains shown) VH: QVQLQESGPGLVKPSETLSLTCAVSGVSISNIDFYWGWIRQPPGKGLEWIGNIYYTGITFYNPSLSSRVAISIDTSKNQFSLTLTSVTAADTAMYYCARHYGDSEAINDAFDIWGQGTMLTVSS VL: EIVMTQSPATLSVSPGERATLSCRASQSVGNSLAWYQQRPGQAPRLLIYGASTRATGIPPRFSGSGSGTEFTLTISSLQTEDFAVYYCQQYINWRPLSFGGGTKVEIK ?
Result block: 19900

Query block: And then TCN-535 (5246_P19) (antibody, V domains shown) VH: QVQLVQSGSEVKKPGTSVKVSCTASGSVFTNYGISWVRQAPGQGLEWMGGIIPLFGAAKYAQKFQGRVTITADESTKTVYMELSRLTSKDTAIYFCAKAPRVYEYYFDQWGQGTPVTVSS VL: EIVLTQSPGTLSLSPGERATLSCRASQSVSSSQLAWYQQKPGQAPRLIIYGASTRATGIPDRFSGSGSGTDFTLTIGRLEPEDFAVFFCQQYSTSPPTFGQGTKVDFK , what is it?
Result block: 428

Query block: // query: TCN-534 (5249_B02) (antibody, V domains shown) VH: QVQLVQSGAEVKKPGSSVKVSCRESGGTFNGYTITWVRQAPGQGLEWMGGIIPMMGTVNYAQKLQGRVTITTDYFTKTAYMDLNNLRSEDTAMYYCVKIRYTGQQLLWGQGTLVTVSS VL: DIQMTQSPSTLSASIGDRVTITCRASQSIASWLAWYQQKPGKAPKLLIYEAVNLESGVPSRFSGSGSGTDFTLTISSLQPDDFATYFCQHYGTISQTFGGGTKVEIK
Result block: 79
